Recorded values, source PubChem BioAssay AID652067.

# System: DAF-12 nuclear receptor (Haemonchus contortus)
# Assay info: hcDAF-12 driven luciferase reporter activation – cell-based, luminescence, HEK293, lit1-tk-luc reporter, primary screen (AID 652067);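 note: 100% = response to 3 µM Δ7-dafachronic acid high control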
# Condition description: HEK293 hcDAF-12 lit1-tk-luc reporter, at 6.8 µM, stronger effect = higher value, 0% DMSO, 100% Δ7-dafachronic acid
Screen size: about 370,000 compounds; about 5,400 (1.5%) were called active. This is one part of a sample in which actives are shown more often than they occur.
Consider the following compounds and their measured activation readings.
Endpoint label: activation (%)

• O=C(C1CCCN1S(=O)(=O)c1ccccc1)N1CCc2ccccc2C1 (stereo not given) = -0.91
• CC(=O)Nc1cccc(C(=O)OCC(=O)c2ccc3c(c2)OCO3)c1 = 8.29
• CCC1C(=O)c2ccccc2N(C)C1=O (stereo not given) = 4.03
• CN1C(=O)/C(=N/OC(=O)c2ccccc2Br)c2ccccc21 = -0.66
• COc1cccc(N(C(=O)CNC(=O)c2ccco2)C(C(=O)NC2CCCCC2)c2cccnc2)c1 (stereo not given) = -0.65
• CCCCCCN1CCS(=O)(=O)N(Cc2ccc(C(F)(F)F)cc2)C(C(=O)OC)C1 (stereo not given) = -2.04
• COC(=O)[C@]12C[C@H](CC(=O)NCc3cccs3)C(=O)N(CCc3ccc(OC)c(OC)c3)C1=C[C@H](C(C)C)O[C@@H]2C1CC1 = -3.12
• C/C(=N\NC(=S)NC1CCCCC1)c1ccc(C)o1 = -1.13
• Cc1ccc(N(C(=O)CNC(=O)c2ccco2)C(C(=O)NC2CCCC2)c2ccncc2)cc1 (stereo not given) = 0.7
• CCCCN(C)C(=O)c1ccc2c(c1)N(CC)C(=O)c1ccccc1S2(=O)=O = 6.63
• CC(=O)C1C(c2ccc(Cl)cc2)c2c(n[nH]c2C)CC1(C)O (stereo not given) = -0.09
• COc1ccc(CNS(=O)(=O)c2cc(Br)ccc2Br)cc1 = -0.97
• COC(=O)[C@]12C[C@H](CC(=O)NCc3ccccc3)C(=O)N(CCc3ccc(OC)c(OC)c3)C1=C[C@H](C(C)(C)C)O[C@@H]2C = -2.1
• Cc1cccc(Nc2nc(-c3ccccc3)cs2)n1 = 13
• COC(=O)c1cc2c(c3c4ccccc4n(S(=O)(=O)c4cccc(C)c4)c13)C(=O)N(Cc1ccccc1)C2 = 1.43
• Cc1ccc(C)c(CN2CCC(CNC(=O)C3CCCN(c4ncnc5c4nc4n5CCCCC4)C3)CC2)c1 (stereo not given) = -1.74
• COc1cccc(C(NC(C)=O)c2nc(-c3cnc4ccccc4c3)cs2)c1 (stereo not given) = -2.08
• COC(=O)[C@]12C[C@H](CC(=O)NCCCN3CCCC3=O)C(=O)N(CCc3ccc(OC)c(OC)c3)C1=C[C@H](COCc1ccccc1)O[C@@H]2C = -0.83
• CC(=O)Nc1cccc(C(=O)OCC(=O)NCc2cc(C)c(O)c(C)c2)c1 = 1.87
• COCC(=O)N[C@@H]1C[C@@H]2O[C@@H](CO)CC[C@@H]2O[C@@H]1CCc1ccc(-c2ccccc2)cc1 = -2.01
• NC(=O)Nc1ccccc1C(=O)NCCc1ccccc1 = 8.5
• Cc1ccnc(Nc2nc3ccccc3s2)n1 = 9.2
• O=C(O)c1ccccc1-c1ccccc1C(=O)NCCc1ccccc1 = -1.14
• O=C(NCc1cccs1)C1CCCN(S(=O)(=O)c2ccc([N+](=O)[O-])cc2)C1 (stereo not given) = -2.29
• COc1ccccc1C(=O)N1O[C@]23C=C[C@]14C[C@@H](O)CC[C@]4(C)C2CC[C@]1(C)[C@@H]([C@H](C)/C=C/[C@H](C)C(C)C)CC[C@H]13 (stereo not given in full) = 0.11
• CC(=O)Nc1cccc(-c2csc(Nc3cccc(C)n3)n2)c1 = 6.6
• Nc1nonc1C(=O)NCCc1ccccc1 = -1.41
• COc1ccc(Cn2ccc3ccc(-c4ccc5ccn(Cc6ccccc6C)c5c4)cc32)cc1 = -1.83
• CC(=O)NC(c1ccccc1)c1nc(-c2cccc(C(C)C)c2)cs1 (stereo not given) = -2.11
• CCCCOCC1CN(CCCC)S(=O)(=O)c2c(Oc3ccc(F)cc3)cccc2O1 (stereo not given) = -1.09
• CC(=O)Nc1cccc(C(=O)OCN2C(=O)c3ccccc3C2=O)c1 = 1.25
• O=C(c1ccc2c(c1)N(Cc1ccc(F)cc1)C(=O)c1ccccc1S2(=O)=O)N1CCN(c2ccccn2)CC1 = -2.49
• CC(C)c1cccc(-c2csc(C(O)c3ccccc3)n2)c1 (stereo not given) = 1
• COc1ccc(S(=O)(=O)Nc2ccc3c(c2)C(=O)N([C@H](C)CO)C[C@H](C)[C@@H](CN(C)C)OCCCC[C@H](C)O3)cc1 = -1.41
• CC(=O)NC(c1ccccc1)c1nc(-c2ccccc2C)cs1 (stereo not given) = 3.96

---

Consider the following molecules and their measured activation readings.
# Tested on: DAF-12 nuclear receptor (Haemonchus contortus)
# Assay info: hcDAF-12 driven luciferase reporter activation – cell-based, luminescence, HEK293, lit1-tk-luc reporter, primary screen (AID 652067);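 note: 100% = response to 3 µM Δ7-dafachronic acid high control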
# Condition description: HEK293 hcDAF-12 lit1-tk-luc reporter, at 6.8 µM, stronger effect = higher value, 0% DMSO, 100% Δ7-dafachronic acid
About 5,400 (1.5%) of roughly 370,000 compounds were called active. The list comes from a sample in which actives are over-represented; it also holds close analogues and randomly drawn compounds.
Endpoint label: activation (%)

• CC(=O)OCCN1CCCC12CCC(c1ccccc1)CC2 (stereo not drawn) = -0.23
• O=C(C1CCN(S(=O)(=O)c2ccccc2)CC1)N1CCN(C2CCCCC2)CC1 = -1.68
• CSc1nc2nc3c(c(=O)n2[nH]1)CCC3 = 0.72
• FC(F)(F)c1nc(-c2ccccc2)ncc1-c1nnnn1-c1ccccc1 = -4.23
• COc1ccc(C(=O)CC(=O)c2ccc(C)cc2)c(O)c1 = -0.09
• C=CCn1c(CCNC(=O)c2cccs2)n[nH]c1=S = 1.16
• COC(=O)C1=C(C)N(Cc2ccccc2C(F)(F)F)C(=NCc2ccc(C(F)(F)F)cc2)NC1c1ccc(F)cc1 (stereo not drawn) = -0.44
• O=C(Nc1nc2ccc(Cl)cc2s1)c1cc(-c2ccc(Cl)cc2)nc2ccccc12 = 4.5
• O=C(NCc1ccc(Cl)cc1)C1CCCN(c2nc3ccccc3o2)C1 (stereo not drawn) = -2.71
• Nc1cc(=O)c2[nH]cnc2[nH]1 = -0.07
• C=CC1=CCN(S(=O)(=O)C(C)(C)C)[C@@H]1CCO = -0.05
• COC(=O)c1cc2c(c3c4cc(F)ccc4n(S(=O)(=O)c4ccccc4)c13)C(=O)N(Cc1ccccc1OC)C2 = 0.96
• CCOCCCNC(=O)C(NC(=O)CNC(=O)c1ccccc1)c1ccc(OC)cc1 (stereo not drawn) = 1.22
• NNc1nc2c(Cl)cccc2s1 = 10
• C[C@H](NC(=O)c1ccccc1)C(=O)OCC(=O)c1c[nH]c2ccccc12 = 4.62
• CCOCCCNC(=O)C(NC(=O)Cc1c[nH]c2ccccc12)c1ccc(OC)cc1 (stereo not drawn) = 5.82
• COCc1ccc(C(=O)N2CCc3c([nH]c4ccccc34)C2c2ccccn2)s1 (stereo not drawn) = 0.63
• CCOc1ccc(NC(=O)CSc2ncnc3c2sc2ccccc23)cc1 = 2.39
• C[C@H]1[C@H](c2ccccc2)Oc2cc(Br)ccc2S(=O)(=O)N1Cc1cccc(F)c1 = -0.73
• COCCCNc1nc2ccccc2nc1NS(=O)(=O)c1ccc(F)cc1 = 4.77
• O=c1[nH]c2ccccc2s1 = 1.16
• O=C(OCC(=O)c1c[nH]c2ccccc12)c1cccc(O)c1 = 8.68
• NC(=O)CSc1c[nH]c2ccccc12 = 6.34
• CCCn1cc(SCC(N)=O)c2ccccc21 = 2.17
• Cc1cccc(C(=O)N2CCc3c([nH]c4ccccc34)C2CC(C)C)n1 (stereo not drawn) = 6.78
• C=CS(=O)(=O)N(Cc1nnn(Cc2ccccc2)c1Br)[C@H](C(=O)OC)C(C)C = -3.12
• C=CCC[C@@H](Cc1ccc(F)cc1)C(=O)OC[C@H](Cc1c[nH]c2ccccc12)NC(=O)[C@@H](CC=C)CC(=O)N(CCO)Cc1ccccc1 = -2.25
• C=CCn1c(=NC(=O)c2ccc(S(=O)(=O)N3CCCC3)cc2)sc2cc(NC(C)=O)ccc21 = -1.46
• O=C(CSc1nnc(-c2c[nH]c3ccccc23)o1)c1ccccc1 = -0.49
• O=C(Nc1ccccc1)Nc1nnc(COc2ccccc2F)s1 = -0.12
• Nc1ccc2[nH]c(=S)sc2c1 = 7.75
• C=CCN(C(=O)[C@@H](CCCC)[C@@H](O)c1ccc(Cl)cc1)c1ccccc1 = -1.78
• COC(=O)Nc1nc2ccc(C(=O)C3CC3)cc2[nH]1 = 0.63
• Cc1cccc(NC(=O)C[C@H]2CC[C@H]3[C@@H](COc4ccc(NC(=O)Nc5ccccc5)cc4C(=O)N3C)O2)c1 = -0.28
• COc1ccc(-n2c(SCC(=O)Nc3ccc(C)c(Cl)c3)nc3ccccc3c2=O)cc1 = -3.08
• COc1ccc(CC(=O)NCc2nnc(SCC(=O)Nc3nccs3)n2C)cc1 = -1.09
• O=S(=O)(Nc1ccc2nc(-c3ccco3)[nH]c2c1)c1ccccc1 = 1.02
• CCOCCCNC(=O)C(NC(=O)CNC(=O)c1ccccc1)c1ccc(C)cc1 (stereo not drawn) = -0.9
